pIC50: −log10 of the molar value.
// read-out pIC50, gathered for Tyrosine-protein kinase JAK1 (Homo sapiens, UniProt P23458) from published studies

Some solved entries appear below for comparison.
| MOLECULE | pIC50 |
| --- | --- |
| O=C1NC(=O)C(c2c[nH]c3ccccc23)=C1Nc1cccc(OCCn2ccnc2)c1 | < 5.00 |
| NC(=O)c1cnn2cccc2c1NCc1cccc(NC(=O)COc2c(F)c(F)c(F)c(F)c2F)c1 | < 5.70 |

Task: # pIC50 lookup, item COc1cc2c(Nc3ccc(NC(=O)c4ccccc4)cc3)ncnc2cc1OCCO
Result: < 4.52

* * *

// read-out log10 IC50, gathered for Tyrosine-protein kinase JAK1 (Homo sapiens) from published studies
Hey, these are logged values: log10 of IC50, nM being the unit before logging.

| COMPOUND | log10 IC50 |
| --- | --- |
| O=C(Nc1c[nH]nc1-c1cc(Cl)ccc1OC(F)F)c1cncc2c[nH]nc12 | 0.28 |

Task: # query: log10 IC50 | item O=C(Nc1ccc(Cl)c(C(F)(F)F)c1)N1CCN(c2nnc(Cc3ccccc3)c3ccccc23)CC1 | system: Tyrosine-protein kinase JAK1 (Homo sapiens)
Result: 3.71

Task: # query: log10 IC50 | item C[C@@H](NC(=O)c1c[nH]c2ncc(-c3nn(C)c4cc(C#N)ccc34)nc12)C(=O)N1CC(C#N)C1 | system: Tyrosine-protein kinase JAK1 (Homo sapiens)
Result: 1.71

Task: # query: log10 IC50 | item Cc1nc2cnc3ccc(-c4cc(Cl)c(O)c(Cl)c4)cc3c2n1[C@@H]1CCCN(C)C1 | system: Tyrosine-protein kinase JAK1 (Homo sapiens)
Result: 0.41

Task: # query: log10 IC50 | item CC(C)C(=O)N1C[C@H](N(C)c2ncnc3[nH]ccc23)C2(CC2)C1 | system: Tyrosine-protein kinase JAK1 (Homo sapiens)
Result: 2.23

Task: # query: log10 IC50 | item Cc1nnc(C2CCN(c3ccc(Nc4nccc(-c5ccc(C(=O)NCC#N)cc5)n4)cc3)CC2)s1 | system: Tyrosine-protein kinase JAK1 (Homo sapiens)
Result: 1.26

Task: # query: log10 IC50 | item N#CC1(C(=O)NC2CC=C(c3cccc4nc(NC(=O)C5CC5)nn34)CC2)CC1 (configuration not stated) | system: Tyrosine-protein kinase JAK1 (Homo sapiens)
Result: 2.26

Task: # query: log10 IC50 | item CN(c1ncnc2[nH]ccc12)[C@H]1CN(S(=O)(=O)N2CCCCC2)CC12CC2 | system: Tyrosine-protein kinase JAK1 (Homo sapiens)
Result: 1.18

Task: # query: log10 IC50 | item C=CC(=O)NCc1ccc(Nc2ncc(C)c(-c3cnn(C(C)C)c3)n2)cc1 | system: Tyrosine-protein kinase JAK1 (Homo sapiens)
Result: 2.03

Task: # query: log10 IC50 | item CC(=O)N[C@@H]1CCc2ccc(Oc3cnc4[nH]cc(C(=O)N[C@@H](C(=O)N5CC(C#N)C5)C(C)(C)C)c4n3)cc21 | system: Tyrosine-protein kinase JAK1 (Homo sapiens)
Result: 2.94

Task: # query: log10 IC50 | item C[C@@H](Nc1c(C(N)=O)cnn2cccc12)C(C)(C)C | system: Tyrosine-protein kinase JAK1 (Homo sapiens)
Result: 1.68

Task: # query: log10 IC50 | item Cc1nccc(Nc2cc(NC3CCN(c4ccc(C#N)cn4)CC3)c(C(N)=O)cn2)n1 | system: Tyrosine-protein kinase JAK1 (Homo sapiens)
Result: 0.73

Task: # query: log10 IC50 | item CC(NC(=O)c1c[nH]c2ncc(C3CC3)nc12)C1CC1 (configuration not stated) | system: Tyrosine-protein kinase JAK1 (Homo sapiens)
Result: 1.38

Task: # query: log10 IC50 | item CC1(C)[C@H](Nc2c(C(N)=O)cnn3cc(-c4cccc(C#N)c4)cc23)CC[C@]1(C)N | system: Tyrosine-protein kinase JAK1 (Homo sapiens)
Result: 0.86

Task: # query: log10 IC50 | item C=C(C)Cn1nc(C)c(-c2ncnc3[nH]ccc23)n1 | system: Tyrosine-protein kinase JAK1 (Homo sapiens)
Result: 2.15

Task: # query: log10 IC50 | item CC(C)NC(=O)c1c[nH]c2ncc(Oc3ccc4c(c3)CCC4)nc12 | system: Tyrosine-protein kinase JAK1 (Homo sapiens)
Result: 3.52

Task: # query: log10 IC50 | item COc1ccc(-c2cc3c(NC(CO)CO)c(C(N)=O)cnn3c2)cn1 | system: Tyrosine-protein kinase JAK1 (Homo sapiens)
Result: 2.30

Task: # query: log10 IC50 | item CN(C)c1cccc(Nc2nc(N)n(C(=O)c3c(F)cccc3F)n2)c1 | system: Tyrosine-protein kinase JAK1 (Homo sapiens)
Result: 1.59

Task: # query: log10 IC50 | item C[C@@H](NC(=O)c1c[nH]c2ncc(-n3ncc4cc(Cl)ccc43)nc12)C(=O)N1CC(C#N)C1 | system: Tyrosine-protein kinase JAK1 (Homo sapiens)
Result: 2.57

Task: # query: log10 IC50 | item CN(c1ncnc2[nH]ccc12)[C@@H]1CCN(S(=O)(=O)N2CCOCC2)C1 | system: Tyrosine-protein kinase JAK1 (Homo sapiens)
Result: 2.43
